# Tested Target: menin/MLL (terbium chelate-labeled menin, FITC-MBM1 peptide) (Homo sapiens, UniProt O00255, T541A)
# Construct: Menin (a.a 1-610-6xhis tag)
# Sequence (O00255 with tags, fused parts or gaps T541A): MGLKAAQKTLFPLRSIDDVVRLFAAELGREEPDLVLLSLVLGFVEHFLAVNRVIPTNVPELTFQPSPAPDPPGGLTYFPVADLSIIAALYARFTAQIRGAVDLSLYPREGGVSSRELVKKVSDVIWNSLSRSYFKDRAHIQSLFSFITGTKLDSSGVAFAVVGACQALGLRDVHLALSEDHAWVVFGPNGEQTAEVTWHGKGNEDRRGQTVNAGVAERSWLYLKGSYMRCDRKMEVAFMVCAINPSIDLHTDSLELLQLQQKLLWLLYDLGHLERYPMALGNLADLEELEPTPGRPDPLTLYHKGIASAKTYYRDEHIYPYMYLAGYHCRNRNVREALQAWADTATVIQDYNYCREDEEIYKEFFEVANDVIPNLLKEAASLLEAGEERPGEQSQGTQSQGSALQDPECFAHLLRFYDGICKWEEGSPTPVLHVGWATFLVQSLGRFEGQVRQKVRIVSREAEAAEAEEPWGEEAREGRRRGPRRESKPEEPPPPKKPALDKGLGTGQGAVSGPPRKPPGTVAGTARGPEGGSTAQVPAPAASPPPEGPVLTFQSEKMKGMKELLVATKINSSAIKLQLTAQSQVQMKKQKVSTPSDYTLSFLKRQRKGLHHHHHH
# Protocol Description: Menin/MLL homogenous time-resolved fluorescence (HTRF) assay
# Reported Conditions: 30 min incubation
pIC50: −log10 of the molar value.
Outcome Measure: pIC50

// solved cases for pIC50 follow
CNC(=O)c1cnc(N[C@H]2C[C@@H]([C@@H](C(C)C)N3CC4(CCN(c5ncnnc5Oc5ccc(F)cc5-c5cnc(C)nc5C5CC5)C4)C3)C2)s1 (single isomer, unassigned) :: 10.30
CC(C)[C@H]([C@H]1C[C@@H](N(C)CCC(=O)N(C)C)C1)N1CC2(CCN(c3ncnnc3Oc3ccc(F)cc3-c3cncnc3C3CC3)C2)C1 (single isomer, unassigned) :: 9.70
CC(C)C(C1CC2(CCN2)C1)N1CC2(CCN(c3ncnnc3Oc3ccc(F)cc3-c3cncnc3C3CC3)C2)C1 (stereo not shown) :: 9.52
CC(C)[C@H]([C@H]1C[C@@H](NC(=O)C(C)(C)C)C1)N1CC2(CCN(c3ncnnc3Oc3ccc(F)cc3-c3cncnc3C3CC3)C2)C1 (single isomer, unassigned) :: 9.52
CC(C)[C@@H]([C@H]1C[C@@H](N(C)C)C1)N1CC2(CCN(c3ncnnc3Oc3ccc(F)cc3-c3cccnc3C3CC3)C2)C1 (single isomer, unassigned) :: 10.00

(I) CC(=O)NC1CC(C(C(C)C)N2CC3(CCN(c4ncnnc4Oc4ccc(F)cc4-c4cncnc4C4CC4)C3)C2)C1 (single isomer, unassigned)
(II) CC(C)[C@H]([C@H]1C[C@@H](NC2CCOCC2)C1)N1CC2(CCN(c3ncnnc3Oc3ccc(F)cc3-c3cncnc3C3CC3)C2)C1 (single isomer, unassigned)
(III) Cc1ncc(-c2cc(F)ccc2Oc2nncnc2N2CCC3(C2)CN([C@@H](C(C)C)[C@H]2C[C@@H](N4CC5(CN(C(=O)C6(F)CC6)C5)C4)C2)C3)c(C2CC2)n1
(IV) CC(C)[C@H]([C@H]1C[C@@H](N2CCC3(CCO3)C2)C1)N1CC2(CCN(c3ncnnc3Oc3ccc(F)cc3-c3cncnc3C3CC3)C2)C1 (single isomer, unassigned)
(V) CC(C)[C@@H]([C@H]1C[C@@H](N(C)C)C1)N1CC2(CCN(c3ncnnc3Oc3ccc(F)cc3-c3ncccc3C3CC3)C2)C1 (single isomer, unassigned)
Problem: # ascending order, key=pIC50 Response field: labels, in requested order.
Result: I, V, IV, II, III
(I: 7.78, V: 8.28, IV: 9.70, II: 10.00, III: 10.24)

(1) CC(=O)N1CC2(C1)CN([C@H]1C[C@@H]([C@H](C(C)C)N3CC4(CCN(c5ncnnc5Oc5ccc(F)cc5-c5cnc(C)cc5C5CC5)C4)C3)C1)C2 (single isomer, unassigned)
(2) CC(C)[C@@H]([C@H]1C[C@H](N2C[C@H]3COC[C@H]3C2)C1)N1CC2(CCN(c3ncnnc3Oc3ccc(F)cc3-c3nnccc3C3CC3)C2)C1 (single isomer, unassigned)
(3) CC(C)[C@H]([C@H]1C[C@@H](Nc2ccnc(N)n2)C1)N1CC2(CCN(c3ncnnc3Oc3ccc(F)cc3-c3cncnc3C3CC3)C2)C1 (single isomer, unassigned)
Problem: Rank descending by pIC50. To answer, arrange all of the labels according to the requested order.
Result: 3, 1, 2

(a) CO[C@H]1[C@@H]2CN([C@H]3C[C@@H]([C@@H](C(C)C)N4CC5(CCN(c6ncnnc6Oc6ccc(F)cc6-c6cncnc6C6CC6)C5)C4)C3)C[C@@H]21 (single isomer, unassigned)
(b) CC(C)C([C@H]1C[C@@H](N2CCC3(COC3)C2)C1)N1CC2(CCN(c3ncnnc3Oc3ccc(F)cc3-c3cncnc3C3CC3)C2)C1 (stereo partly shown)
(c) CC(C)[C@@H]([C@H]1C[C@@H](N2CCC(S(C)(=O)=O)CC2)C1)N1CC2(CCN(c3ncnnc3Oc3ccc(F)cc3-c3ncncc3C3CC3)C2)C1 (single isomer, unassigned)
Problem: Order the records so the highest pIC50 appears first and the lowest last. Please, when replying, give the labels in the order that was requested.
Result: a, b, c
(a: 10.00, b: 9.70, c: 9.40)

(a) CC(C)C(C1CC(Nc2ncc3cn[nH]c3n2)C1)N1CC2(CCN(c3ncnnc3Oc3ccc(F)cc3-c3cncnc3C3CC3)C2)C1 (single isomer, unassigned)
(b) CC(C)[C@H]([C@H]1C[C@@H](N2CCOCC2)C1)N1CC2(CCN(c3ncnnc3Oc3ccc(F)cc3-c3cncnc3C3CC3)C2)C1 (single isomer, unassigned)
Problem: // returns a or b , whichever has the lower pIC50 Refer to your chosen item by its label in the answer.
Result: b
(b: 9.52, a: 9.82)
